Tested on: TOSV
EXPERIMENT: microbe, parasite or virus in culture
Assay type: cell-based, Toscana virus
REPORTED_CONDITIONS: Toscana virus, Vero C1008, read-out: IC50 (TOSV)
OBSERVATION_TYPE: pIC50
Schema: pIC50 number; meaning minus log10 of the concentration expressed in molar units.

Study these solved cases before continuing.
SAMPLE_SMILES | pIC50
CCCCCc1ccc(C#Cc2ccc(NC(=O)C(C)C)c(C(=O)O)c2)cc1 | 8.00
O=C(O)c1ccccc1Nc1ccc(Cc2ccccc2)cc1 | 6.49

Value lookup for pIC50; key = `CCc1nc2cc(-c3ccc(-c4ccccc4)cc3)cc(C(=O)O)c2[nH]1`
6.93

* * *

EXPERIMENT: Solubility in PBS pH 7.4
REPORTED_CONDITIONS: PBS pH 7.4, 20 °C, pH 7.4, aqueous buffer
OBSERVATION_TYPE: solubility (µM)
Number only, in µM; omit the unit.

Study these solved cases before continuing.
COMPOUND | UNITS | solubility
CCCCCc1ccc(C#Cc2ccc(NC(=O)C(C)C)c(C(=O)O)c2)cc1 [Example 9] | µM | 13
CCC(=O)Nc1ccc(-c2ccc(-c3ccccc3)cc2)cc1C(=O)O [Example 6] | µM | 61
CCCCCc1ccc(C#Cc2ccc(NC(=O)CC)c(C(=O)O)c2)cc1 [Example 8] | µM | 18

Value lookup for solubility; key = CCC(C)c1ccccc1OCCCC(=O)Nc1ccccc1C(=O)O (racemic) [Example 3]
1540

Value lookup for solubility; key = Cc1ccc(NC(=O)COc2ccccc2Cc2ccccc2)c(C(=O)O)c1 [Example 1]
167

* * *

Tested on: BHK-21
EXPERIMENT: Cytotoxicity assay, BHK-21 cells
REPORTED_CONDITIONS: Hamster BHK-21 cells; value repeated under each virus
OBSERVATION_TYPE: CC50 (µM)
Number only, in µM; omit the unit.

Value lookup for CC50; key = `CCCCCc1ccc(C#Cc2ccc(NC(=O)C(C)C)c(C(=O)O)c2)cc1`
55

* * *

System: TOSV
EXPERIMENT: microbe, parasite or virus in culture
Assay type: cell-based, Toscana virus
REPORTED_CONDITIONS: Toscana virus, Vero C1008, read-out: IC50 (TOSV)
OBSERVATION_TYPE: log10 of IC50 (log10 of the value in nM)
// units: nM (pre-log); metric: IC50; scale: log10

COMPOUND | OBSERVATION_TYPE | READOUT_VALUE
CCC(C)c1ccccc1OCCCc1nc2ccc(F)cc2c(=O)o1 (centres unmarked) [Example 22] | log10 of IC50 | 2.48

Value lookup for log10 of IC50; key = O=C(COc1ccccc1Cc1ccccc1)Nc1ccc2c(c1C(=O)O)OC(F)(F)O2 [Example 17]
3.78

Value lookup for log10 of IC50; key = CCC(=O)Nc1ccc(-c2ccc(-c3ccccc3)c(F)c2)cc1C(=O)O [Example 7]
2.04

Value lookup for log10 of IC50; key = CCC(C)c1ccccc1OCC(=O)Nc1ccc2c(c1C(=O)O)OC(F)(F)O2 (centres unmarked) [Example 16]
3.60

Value lookup for log10 of IC50; key = CCC(C)c1ccccc1OCc1nc2ccc(C)cc2c(=O)o1 (centres unmarked) [Example 20]
2.78

* * *

Test system: TBEV
EXPERIMENT: microbe, parasite or virus in culture
Assay type: cell-based
REPORTED_CONDITIONS: Tick-borne encephalitis virus, L929, in Mus musculus, read-out: IC50 TBEV
hey, just use TRUE if measured IC50 is less than 9 nM, otherwise FALSE

COMPOUND | GROUP
CCC(C)c1ccccc1OCCCC(=O)Nc1ccccc1C(=O)O (racemic) | FALSE
CCCCCc1ccc(C#Cc2ccc(NC(=O)CC)c(C(=O)O)c2)cc1 | TRUE
Cc1ccc(NC(=O)COc2ccccc2Cc2ccccc2)c(C(=O)O)c1 | FALSE
COc1ccc(Nc2ccc(Oc3ccccc3)cc2)c(C(=O)O)c1 | FALSE

In the following, a different compound is considered.
Is the reported IC50 for `CCC(=O)Nc1ccc(-c2ccc(-c3ccccc3)c(F)c2)cc1C(=O)O` strictly below 9 nM?
TRUE
